Test system: NCI-H196 complex spheroid viability
Test: Anticancer human tumor NCI-H196 cell line growth inhibition [LSD1];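 also: spheroids exposed to agents for 7 days before readout; 100% = DMSO vehicle control viability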
Conditions: second compound 0.316 µM; first compound 0.003 µM; hits give low values
viability, T/C for assorted compounds
quantity_kind: viability, T/C (%)

compound="CCc1c2c(nc3ccc(O)cc13)-c1cc3c(c(=O)n1C2)COC(=O)[C@]3(O)CC + NC1CCC(NC2CC2c2ccccc2)CC1" tgt="NCI-H196 complex spheroid viability" quantity_kind="viability, T/C" value_reported=104
compound="Nc1ncn(C2CC(O)C(CO)S2)c(=O)n1 (stereo unspecified) + NC1CCC(NC2CC2c2ccccc2)CC1" tgt="NCI-H196 complex spheroid viability" quantity_kind="viability, T/C" value_reported=102
compound="Nc1ncn(C2CC(O)C(CO)S2)c(=O)n1 (stereo unspecified) + NC1CC1c1ccc(-c2cccc(O)c2)cc1" tgt="NCI-H196 complex spheroid viability" quantity_kind="viability, T/C" value_reported=111
compound="Nc1ccn(C2OC(CO)C(O)C2(F)F)c(=O)n1 (stereo unspecified) + NC1CC1c1ccc(-c2cccc(O)c2)cc1" tgt="NCI-H196 complex spheroid viability" quantity_kind="viability, T/C" value_reported=107
compound="Nc1ccn(C2OC(CO)C(O)C2(F)F)c(=O)n1 (stereo unspecified) + NC1CCC(NC2CC2c2ccccc2)CC1" tgt="NCI-H196 complex spheroid viability" quantity_kind="viability, T/C" value_reported=99.3
compound="CCc1c2c(nc3ccc(O)cc13)-c1cc3c(c(=O)n1C2)COC(=O)[C@]3(O)CC + NC1CC1c1ccc(-c2cccc(O)c2)cc1" tgt="NCI-H196 complex spheroid viability" quantity_kind="viability, T/C" value_reported=93.1

----------
Test system: NCI-H196 complex spheroid viability
Assay: Anticancer human tumor NCI-H196 cell line growth inhibition [LSD1];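 also: spheroids exposed to agents for 7 days before readout; 100% = DMSO vehicle control viability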
Details: second compound 0.1 µM; first compound 0.03 µM; hits give low values
viability, T/C for assorted compounds
quantity_kind: viability, T/C (%)

compound="CCc1c2c(nc3ccc(O)cc13)-c1cc3c(c(=O)n1C2)COC(=O)[C@]3(O)CC + NC1CCC(NC2CC2c2ccccc2)CC1" tgt="NCI-H196 complex spheroid viability" value_reported=3.31
compound="O=C(C=Cc1cccc(S(=O)(=O)Nc2ccccc2)c1)NO + NC1CCC(NC2CC2c2ccccc2)CC1" tgt="NCI-H196 complex spheroid viability" value_reported=103
compound="CCc1c2c(nc3ccc(O)cc13)-c1cc3c(c(=O)n1C2)COC(=O)[C@]3(O)CC + NC1CC1c1ccc(-c2cccc(O)c2)cc1" tgt="NCI-H196 complex spheroid viability" value_reported=4.2
compound="NS(=O)(=O)OCC1CC(n2ccc3c(NC4CCc5ccccc54)ncnc32)CC1O (centres undefined) + NC1CCC(NC2CC2c2ccccc2)CC1" tgt="NCI-H196 complex spheroid viability" value_reported=103
compound="NS(=O)(=O)OCC1CC(n2ccc3c(NC4CCc5ccccc54)ncnc32)CC1O (centres undefined) + NC1CC1c1ccc(-c2cccc(O)c2)cc1" tgt="NCI-H196 complex spheroid viability" value_reported=103
compound="Nc1ccn(C2OC(CO)C(O)C2(F)F)c(=O)n1 (centres undefined) + NC1CC1c1ccc(-c2cccc(O)c2)cc1" tgt="NCI-H196 complex spheroid viability" value_reported=65.2
compound="O=C(C=Cc1cccc(S(=O)(=O)Nc2ccccc2)c1)NO + NC1CC1c1ccc(-c2cccc(O)c2)cc1" tgt="NCI-H196 complex spheroid viability" value_reported=91.2
compound="COc1cc(C2c3cc4c(cc3C(OC3OC5COC(C)OC5C(O)C3O)C3COC(=O)C23)OCO4)cc(OC)c1O (centres undefined) + NC1CCC(NC2CC2c2ccccc2)CC1" tgt="NCI-H196 complex spheroid viability" value_reported=97.2
compound="Nc1ccn(C2OC(CO)C(O)C2(F)F)c(=O)n1 (centres undefined) + NC1CCC(NC2CC2c2ccccc2)CC1" tgt="NCI-H196 complex spheroid viability" value_reported=65.1
